# log10 koff values compiled below
- subjectOfTest: T1, human LAP-TGFB1 Fc fusion (human)
- T1 construct: also called human LAP-TGFβ1-Fc; human LAP-TGFβ-Fc isoform 1
- assayExplanation: SPR pH 7.4, antigen captured on Fab 54BLH
parameterMeasured: log10 koff (log10 of the value in s⁻¹)

binder | log10 koff
67BLH (Fab, V domains shown, also called 19BLM Fab) VH: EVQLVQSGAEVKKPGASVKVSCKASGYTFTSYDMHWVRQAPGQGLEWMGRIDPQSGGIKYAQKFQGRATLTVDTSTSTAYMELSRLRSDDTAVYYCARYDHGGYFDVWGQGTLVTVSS VL: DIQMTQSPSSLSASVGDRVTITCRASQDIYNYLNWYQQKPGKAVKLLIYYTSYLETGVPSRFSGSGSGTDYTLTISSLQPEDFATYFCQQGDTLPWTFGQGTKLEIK | -1.81
54BLH (Fab, V domains shown, also called 06BLM Fab) VH: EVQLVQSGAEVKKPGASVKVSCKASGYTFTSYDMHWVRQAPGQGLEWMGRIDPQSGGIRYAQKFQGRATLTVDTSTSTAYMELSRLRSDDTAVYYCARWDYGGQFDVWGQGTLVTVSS VL: DIQMTQSPSSLSASVGDRVTITCRASQDIYNYLNWYQQKPGKAVKLLIYYTSILETGVPSRFSGSGSGTDYTLTISSLQPEDFATYFCQQGDTLPWTFGQGTKLEIK | -4.48
15BLM (antibody, human IgG1, kappa, L234A L235A, V domains shown, IgG1 L234A L235A D265S/kappa; also called 78BLH; 51BMD) VH: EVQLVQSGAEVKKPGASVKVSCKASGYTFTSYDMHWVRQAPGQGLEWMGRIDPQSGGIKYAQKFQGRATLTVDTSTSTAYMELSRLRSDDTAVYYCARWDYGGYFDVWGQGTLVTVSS VL: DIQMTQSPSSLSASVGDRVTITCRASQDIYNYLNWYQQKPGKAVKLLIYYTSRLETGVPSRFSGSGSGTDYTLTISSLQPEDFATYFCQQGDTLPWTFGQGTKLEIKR | -2.71
66BLH (Fab, V domains shown, also called 18BLM Fab) VH: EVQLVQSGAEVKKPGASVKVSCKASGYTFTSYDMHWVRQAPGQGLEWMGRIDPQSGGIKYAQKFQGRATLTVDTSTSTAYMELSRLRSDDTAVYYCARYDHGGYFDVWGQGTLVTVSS VL: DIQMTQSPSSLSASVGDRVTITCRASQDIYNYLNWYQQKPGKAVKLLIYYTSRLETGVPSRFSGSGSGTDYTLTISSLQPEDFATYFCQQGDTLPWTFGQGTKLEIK | -1.74
11BLM (antibody, human IgG1, kappa, L234A L235A, V domains shown, IgG1 L234A L235A D265S/kappa; also called 74BLH; 47BMD) VH: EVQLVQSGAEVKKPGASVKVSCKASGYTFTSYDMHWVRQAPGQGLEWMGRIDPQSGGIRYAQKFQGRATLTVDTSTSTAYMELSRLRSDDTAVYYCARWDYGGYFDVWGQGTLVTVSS VL: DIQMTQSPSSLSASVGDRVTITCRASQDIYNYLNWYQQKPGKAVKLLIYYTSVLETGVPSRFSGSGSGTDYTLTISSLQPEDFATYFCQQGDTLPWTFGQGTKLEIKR | -3.43
55BLH (Fab, V domains shown, also called 07BLM Fab) VH: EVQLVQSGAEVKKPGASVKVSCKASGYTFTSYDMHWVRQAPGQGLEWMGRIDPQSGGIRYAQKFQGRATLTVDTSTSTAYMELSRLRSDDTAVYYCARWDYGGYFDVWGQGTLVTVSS VL: DIQMTQSPSSLSASVGDRVTITCRASQDIYSYLNWYQQKPGKAVKLLIYYTSNLETGVPSRFSGSGSGTDYTLTISSLQPEDFATYFCQQGDTLPWTFGQGTKLEIK | -2.96
60BLH (Fab, V domains shown, also called 12BLM Fab) VH: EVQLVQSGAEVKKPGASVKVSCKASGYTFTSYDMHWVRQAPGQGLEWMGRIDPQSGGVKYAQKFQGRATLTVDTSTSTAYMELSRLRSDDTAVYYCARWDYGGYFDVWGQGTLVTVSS VL: DIQMTQSPSSLSASVGDRVTITCRASQDIYNYLNWYQQKPGKAVKLLIYYTSVLETGVPSRFSGSGSGTDYTLTISSLQPEDFATYFCQQGDELPWTFGQGTKLEIK | -3.46
12BLM (antibody, human IgG1, kappa, L234A L235A, V domains shown, IgG1 L234A L235A D265S/kappa; also called 75BLH; 48BMD) VH: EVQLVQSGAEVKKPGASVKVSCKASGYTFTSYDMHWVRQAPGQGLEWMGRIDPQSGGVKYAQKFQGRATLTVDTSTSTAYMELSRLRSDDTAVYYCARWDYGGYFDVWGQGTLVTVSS VL: DIQMTQSPSSLSASVGDRVTITCRASQDIYNYLNWYQQKPGKAVKLLIYYTSVLETGVPSRFSGSGSGTDYTLTISSLQPEDFATYFCQQGDELPWTFGQGTKLEIKR | -3.67
16BLM (antibody, human IgG1, kappa, L234A L235A, V domains shown, IgG1 L234A L235A D265S/kappa; also called 79BLH; 52BMD) VH: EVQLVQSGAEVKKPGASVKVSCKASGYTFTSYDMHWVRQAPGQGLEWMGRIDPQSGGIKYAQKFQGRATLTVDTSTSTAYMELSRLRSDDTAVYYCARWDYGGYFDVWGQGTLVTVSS VL: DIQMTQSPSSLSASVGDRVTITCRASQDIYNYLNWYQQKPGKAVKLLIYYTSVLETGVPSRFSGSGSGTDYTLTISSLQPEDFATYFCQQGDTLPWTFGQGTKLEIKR | -3.26
63BLH (Fab, V domains shown, also called 15BLM Fab; 015BLM Fab) VH: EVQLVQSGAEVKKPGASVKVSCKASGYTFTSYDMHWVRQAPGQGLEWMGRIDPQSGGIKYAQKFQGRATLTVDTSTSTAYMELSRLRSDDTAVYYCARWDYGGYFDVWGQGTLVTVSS VL: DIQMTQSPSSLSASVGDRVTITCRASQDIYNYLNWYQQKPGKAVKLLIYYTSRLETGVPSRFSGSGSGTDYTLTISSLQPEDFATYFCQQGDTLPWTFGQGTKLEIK | -2.47
59BLH (Fab, V domains shown, also called 11BLM Fab) VH: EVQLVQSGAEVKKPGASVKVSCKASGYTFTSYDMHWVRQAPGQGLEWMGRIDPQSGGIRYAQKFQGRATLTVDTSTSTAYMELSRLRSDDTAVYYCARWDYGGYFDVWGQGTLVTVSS VL: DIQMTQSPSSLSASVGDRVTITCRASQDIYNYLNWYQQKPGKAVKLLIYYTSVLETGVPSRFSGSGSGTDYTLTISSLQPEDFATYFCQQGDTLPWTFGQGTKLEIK | -3.24
